Where do the numbers come from? From patent US20230125550A1.

Target: T1, recombinant human CD123-Fc (human, UniProt P26951 19-305)
T1 construct: not shown: Fc part of CD123-Fc
T1 sequence: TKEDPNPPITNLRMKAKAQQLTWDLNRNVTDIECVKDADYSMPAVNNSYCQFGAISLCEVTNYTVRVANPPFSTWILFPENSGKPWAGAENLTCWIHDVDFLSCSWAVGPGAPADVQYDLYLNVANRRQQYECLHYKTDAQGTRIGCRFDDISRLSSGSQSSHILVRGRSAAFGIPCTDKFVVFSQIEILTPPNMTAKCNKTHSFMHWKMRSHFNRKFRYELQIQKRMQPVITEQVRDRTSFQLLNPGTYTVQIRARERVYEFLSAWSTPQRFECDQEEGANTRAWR
Test: phage ELISA, A450 target/A450 IgG1-Fc
Assign labels as follows, please: criterion met for ELISA_avg below 4 ratio; criterion not met for ELISA_avg equal to or exceeding 4 ratio.

| BINDER | DISCRETE LABEL |
| --- | --- |
| SEQ ID NO 685 (designed binder) MGSWVEFYDRLYAIEVRLLALGGSEAELAAFEKEIAAFESELQAYKGKGNPEVEFLRQEAAEIRDWLQAYRHN | criterion not met |
| SEQ ID NO 703 (designed binder) MGSWVEFYDRLHAIYFRLLALGGSEAELAAFEKEIAAFESELQAYKGKGNPEVEDLRWYAADIRLVLQAYRHN | criterion not met |
| SEQ ID NO 661 (designed binder) MGSWYEFFDRLDAIYDRLYALGGSEAELASFEAQIAEFEVELQSYKGKGNPEVEALEWEAWAIDEELYAYRHN | criterion not met |
| SEQ ID NO 648 (designed binder) MGSWDEFEERLQAIEYRLWALGGSEAELAWFEEVIAQFEYDLQKYKGKGNPEVEALSTEAQAIQDELWAYRHN | criterion met |
